Tested on: LOU-NH91
Experiment: relative viability (nuclei count vs DMSO), 5 days (fraction); higher = more cells survive
Conditions: first compound 0.253 µM
// returns not met unless relative viability is strictly below 0.6, in which case met

Recorded results for 5 molecules are shown here.
molecule	label.value
O=c1cc(-c2cccc3c2Sc2ccccc2S3)oc(N2CCOCC2)c1 + Cc1nc(Nc2ncc(C(=O)Nc3c(C)cccc3Cl)s2)cc(N2CCN(CCO)CC2)n1 [Dasatinib] (partner 0.075 µM)	met
COc1nc(C)cnc1NS(=O)(=O)c1cccnc1-c1ccc(-c2nnco2)cc1 [Zibotentan] + CC(=O)c1c(C)c2cnc(Nc3ccc(N4CCNCC4)cn3)nc2n(C2CCCC2)c1=O [Palbociclib] (partner 0.5 µM)	met
COc1nc(C)cnc1NS(=O)(=O)c1cccnc1-c1ccc(-c2nnco2)cc1 [Zibotentan] + N=C(N)NC(=N)NCCc1ccccc1 [Phenformin] (partner 250 µM)	not met
COc1nc(C)cnc1NS(=O)(=O)c1cccnc1-c1ccc(-c2nnco2)cc1 [Zibotentan] + CC1(C)CCC(c2ccc(Cl)cc2)=C(CN2CCN(c3ccc(C(=O)NS(=O)(=O)c4ccc(N[C@H](CCN5CCOCC5)CSc5ccccc5)c(S(=O)(=O)C(F)(F)F)c4)cc3)CC2)C1 [Navitoclax] (partner 0.5 µM)	not met
COc1nc(C)cnc1NS(=O)(=O)c1cccnc1-c1ccc(-c2nnco2)cc1 [Zibotentan] + C[C@@H](Oc1cc(-c2cnn(C3CCNCC3)c2)cnc1N)c1c(Cl)ccc(F)c1Cl [Crizotinib] (partner 1 µM)	not met

q: relative viability under 0.6? Item: O=c1cc(-c2cccc3c2Sc2ccccc2S3)oc(N2CCOCC2)c1 + O=C(CCCCCCC(=O)Nc1ccccc1)NO [Vorinostat] (partner 1 µM)
a: not met
